- Tested on: Glutamate NMDA receptor; Grin1/Grin2c (Rattus norvegicus) (UniProt P35439+Q00961)
- Test details: Positive allosteric modulation of recombinant rat GluN1/GluN2C receptor expressed in xenopus laevis oocyte assessed as potentiation of glutamate and glycine-induced current response at 30 uM at holding potential -40mV by two electrode voltage clamp method relative to control
Measured attribute: Activity (%)
Numbers only; they are read as %.

Worked set:
Quick one: Activity for COc1ccc(OCC2c3ccc(N(C)C)cc3CCN2C(=O)c2cccc(Br)c2)cc1 (stereo not given) ? 285

Quick one: Activity for COc1ccc(OCC2c3ccc(NC(C)C)cc3CCN2C(=O)c2cccc(Cl)c2)cc1 (stereo not given) ? 239

Quick one: Activity for CCOc1ccc(OCC2c3ccc(OC(C)C)cc3CCN2C(=O)c2ccc(F)c(Cl)c2)cc1 (stereo not given) ? 159

Quick one: Activity for COc1ccc(OCC2c3ccc(N4CCOCC4)cc3CCN2C(=O)c2cccc(Cl)c2)cc1 (stereo not given) ? 273

***
Quick one: Activity for CCOc1ccc(OCC2c3ccc(OC(C)C)cc3CCN2C(=O)c2ccccc2Cl)cc1 (stereo not given) ? 93

Quick one: Activity for CCOc1ccc(OCC2c3ccc(OC(C)C)cc3CCN2C(=O)c2cccc(Br)c2)cc1 (stereo not given) ? 133

Quick one: Activity for COc1ccc(OCC2c3ccc(OC(C)C)cc3CCN2C(=O)c2ccc(OC)cc2)cc1 (stereo not given) ? 138

Quick one: Activity for CCOc1ccc(OCC2c3ccc(OC(C)C)cc3CCN2C(=O)c2cccc(C)c2)cc1 (stereo not given) ? 67

Quick one: Activity for COc1ccc(OCC2c3ccc(OC(C)C)cc3CCN2C(=O)c2cccc(I)c2)cc1 (stereo not given) ? 215

Quick one: Activity for CCC(CC)Oc1ccc2c(c1)CCN(C(=O)c1cccc(Cl)c1)C2COc1ccc(OC)cc1 (stereo not given) ? 286

Quick one: Activity for COc1ccc(OCC2c3ccc(OC(C)C)cc3CCN2C(=O)c2cccc(O)c2)cc1 (stereo not given) ? 117

Quick one: Activity for CCOc1ccc(OCC2c3ccc(N4CCOCC4)cc3CCN2C(=O)c2cccc(Cl)c2)cc1 (stereo not given) ? 133

Quick one: Activity for CCOc1ccc(OCC2c3ccc(OC(C)C)cc3CCN2C(=O)c2ccccc2)cc1 (stereo not given) ? 83

Quick one: Activity for COc1ccc(OCC2c3ccc(N(C)C)cc3CCN2C(=O)c2cccc(Cl)c2)cc1 (stereo not given) ? 288

Quick one: Activity for CC(C)Oc1ccc(OCC2c3ccc(OC(C)C)cc3CCN2C(=O)c2cccc(F)c2)cc1 (stereo not given) ? 133

* * *

- Tested on: Glutamate NMDA receptor; Grin1/Grin2b (Rattus norvegicus) (UniProt P35439+Q00960)
- Test details: Positive allosteric modulation of recombinant rat GluN1/GluN2B receptor expressed in xenopus laevis oocyte assessed as potentiation of glutamate and glycine-induced current response at 30 uM at holding potential -40mV by two electrode voltage clamp method relative to control
Measured attribute: Activity
Returns: string containing the numeric result and its unit.

Quick one: Activity for COc1ccc(OCC2c3ccc(OC4CCCCC4)cc3CCN2C(=O)c2cccc(Cl)c2)cc1 (centres undefined) ? 259%

Quick one: Activity for CCOc1ccc(OCC2c3ccc(OCC(C)C)cc3CCN2C(=O)c2cccc(Cl)c2)cc1 (centres undefined) ? 294%

Quick one: Activity for COc1ccc(OCC2c3ccc(N(C)C)cc3CCN2C(=O)c2cccc(Br)c2)cc1 (centres undefined) ? 99%

Quick one: Activity for CCOc1ccc(OCC2c3ccc(OC(C)C)cc3CCN2C(=O)c2cccc(C)c2)cc1 (centres undefined) ? 78%

Quick one: Activity for CCOc1ccc(OCC2c3ccc(OC(C)C)cc3CCN2C(=O)c2ccc(F)c(Cl)c2)cc1 (centres undefined) ? 169%

Quick one: Activity for CCOc1ccc2c(c1)CCN(C(=O)c1cccc(Cl)c1)C2COc1ccc(OC)cc1 (centres undefined) ? 158%

Quick one: Activity for COc1ccc(OCC2c3ccc(OC(C)C)cc3CCN2C(=O)c2ccc(Cl)cc2)cc1 (centres undefined) ? 163%

Quick one: Activity for CC(C)Oc1ccc(OCC2c3ccc(OC(C)C)cc3CCN2C(=O)c2cccc(Cl)c2)cc1 (centres undefined) ? 159%

Read the next record carefully.
Quick one: Activity for COc1cccc(OCC2c3ccc(OC(C)C)cc3CCN2C(=O)c2cccc(Cl)c2)c1 (centres undefined) ? 99%
